Each item that follows carries a reported Tm shift.
# Target or test system: Serine/threonine-protein kinase Nek2 (Homo sapiens) (UniProt P51955)
# Sequence (P51955 whole entry, looked up): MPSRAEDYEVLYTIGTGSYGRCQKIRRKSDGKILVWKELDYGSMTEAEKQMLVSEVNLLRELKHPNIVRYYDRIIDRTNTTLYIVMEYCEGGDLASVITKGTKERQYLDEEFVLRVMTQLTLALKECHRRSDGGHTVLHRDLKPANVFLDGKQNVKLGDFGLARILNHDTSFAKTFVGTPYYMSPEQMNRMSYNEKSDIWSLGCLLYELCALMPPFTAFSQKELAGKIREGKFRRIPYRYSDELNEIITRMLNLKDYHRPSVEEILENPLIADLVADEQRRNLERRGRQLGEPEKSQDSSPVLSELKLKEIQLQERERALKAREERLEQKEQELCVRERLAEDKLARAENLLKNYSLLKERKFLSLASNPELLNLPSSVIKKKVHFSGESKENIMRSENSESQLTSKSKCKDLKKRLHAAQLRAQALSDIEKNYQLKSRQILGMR
# Test description: ligand-induced stabilization of human NEK2 kinase – biophysical, DSF, SYPRO orange, recombinant protein (AID 506)
# Conditions used: recombinant NEK2, DSF thermal shift, at 10 µM, protein 2 µM, stronger effect = higher value

// below: answered compounds
>  <Compound>
Clc1cccc(Nc2ccn3ncc(-c4ccc5c(c4)OCO5)c3n2)c1

>  <Target or test system>
Serine/threonine-protein kinase Nek2 (Homo sapiens) (UniProt P51955)

>  <Reported property>
Tm shift

>  <Result>
3.3 °C

$$$$
>  <Compound>
CCN(CC)CCNC(=O)c1c(C)[nH]c(/C=C2\C(=O)Nc3ccc(Cl)cc32)c1C

>  <Target or test system>
Serine/threonine-protein kinase Nek2 (Homo sapiens) (UniProt P51955)

>  <Reported property>
Tm shift

>  <Result>
5.4 °C

$$$$
>  <Compound>
O=Nc1c(-c2c(O)[nH]c3ccc(S(O)(O)O)cc23)[nH]c2ccccc12

>  <Target or test system>
Serine/threonine-protein kinase Nek2 (Homo sapiens) (UniProt P51955)

>  <Reported property>
Tm shift

>  <Result>
3.2 °C

$$$$
>  <Compound>
Cc1cc(Nc2nc(-c3ccccc3)nc3ccccc23)n[nH]1

>  <Target or test system>
Serine/threonine-protein kinase Nek2 (Homo sapiens) (UniProt P51955)

>  <Reported property>
Tm shift

>  <Result>
3.7 °C

$$$$
>  <Compound>
COc1cccc(-c2cnn3ccc(Nc4cccc(Cl)c4)nc23)c1

>  <Target or test system>
Serine/threonine-protein kinase Nek2 (Homo sapiens) (UniProt P51955)

>  <Reported property>
Tm shift

>  <Result>
3.2 °C

$$$$
>  <Compound>
NC(=O)Nc1sc(-c2ccccc2)cc1C(N)=O

>  <Target or test system>
Serine/threonine-protein kinase Nek2 (Homo sapiens) (UniProt P51955)

>  <Reported property>
Tm shift

>  <Result>
3.1 °C

$$$$
>  <Compound>
Nc1cccc(-c2cc3c(Oc4cccc(O)c4)ncnc3[nH]2)c1

>  <Target or test system>
Serine/threonine-protein kinase Nek2 (Homo sapiens) (UniProt P51955)

>  <Reported property>
Tm shift

>  <Result>
3.3 °C

$$$$
>  <Compound>
Nc1nc(Nc2ccc(S(N)(=O)=O)cc2)nn1C(=S)Nc1c(F)cccc1F

>  <Target or test system>
Serine/threonine-protein kinase Nek2 (Homo sapiens) (UniProt P51955)

>  <Reported property>
Tm shift

>  <Result>
3.1 °C

$$$$

Would you mind telling me what Tm shift value was observed for OCC(O)CCO/N=C1/C(c2c(O)[nH]c3ccccc23)=Nc2ccccc21 (stereo unspecified) ?
3.3 °C

Try this compound too: "Cn1cc(/C=C2\C(=O)Nc3ccc(S(N)(=O)=O)cc32)c2ccccc21"
6 °C

Proceed to "C=CCNC(=O)c1cccc2c1-c1ccccc1C2=O"
4.6 °C

Field entry: "O=c1c(O)c(-c2ccc(O)c(O)c2)oc2cc(O)cc(O)c12"
3.4 °C

Can you check "O=C1C(C2=C3C(=Nc4ccccc43)/C(=C\c3ccc(O)cc3)C2=O)=C2C(=Nc3ccccc32)/C1=C\c1ccc(O)cc1" next?
3.2 °C

Also, "Nc1cc2ncnc(Nc3cccc(Br)c3)c2cc1N" please.
3.3 °C

One more compound: "NS(=O)(=O)c1ccc(Nc2nc(OCC3CCCCC3)c3[nH]cnc3n2)cc1"
5.6 °C

And "O=C1NCc2c1c1c3ccccc3[nH]c1c1[nH]c3ccccc3c21" ?
3.7 °C
